Each recorded value in this set is attributed to PubChem BioAssay.

# protocol.summary: inhibitors of E-selectin induction by TNFa, primary screen, imaging, HUVEC, immunofluorescence, MLSMR starter and 10KST1 sets (AID 487);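 also: 100% = median nuclei count of all wells on the same plate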
# stated.conditions: HUVEC TNFalpha-induced E-selectin immunofluorescence imaging, at 2 µM; measured here: cell number, toxicity
property.measured: nuclei count (%)
A number alone suffices; assume %.

In the examples that follow, each entry is paired with its recorded nuclei count.
Cn1c(SCCN2CCCCC2)nnc1-c1ccccc1Br	98.3
O=C1c2ccccc2C(Nc2ccc(-c3nc4ccccc4[nH]3)cc2)N1Cc1ccco1 (stereo unspecified)	108
COc1ccc(CSc2nnc3n(C)c(=O)c4c5c(sc4n23)CCCC5)cc1	184
O=C(O)c1cc2c(s1)CCCC2	111
CCOC(=O)C1=Nc2ccccc2C1=[N+]=[N-]	179

Next up:
Q. # input molecule: `CCn1c(C(=O)N2CCC(C(=O)N3CCN(c4ccccn4)CC3)CC2)cc2sccc21` ; wanted: its nuclei count
A. 121

* * *

# protocol.summary: inhibitors of mutant huntingtin aggregation, primary screen, imaging, exon1htt(103Q)mCFP cells, high-content imaging (AID 483);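 also: compound exposure lasted 3 days before fixation; percent of the per-plate median nuclei count of sample wells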
# stated.conditions: exon1htt(103Q)mCFP cell line, aggregate imaging, at 2 µM; measured here: cell count, toxicity
Entries and their measured nuclei count follow.
A number alone suffices; assume %.

Q. # input compound: `Cc1ccc(-c2nn(-c3ccccc3)cc2CN(Cc2ccccc2)C(=O)CCC(=O)O)o1` ; wanted: its nuclei count
A. 107

Q. # input compound: `CN(C)c1cccc2c(S(=O)(=O)Nc3ccccn3)cccc12` ; wanted: its nuclei count
A. 101

Q. # input compound: `O=C(Cn1c(=O)oc2ccccc21)Nc1ccc(S(=O)(=O)N2CCCCC2)cc1` ; wanted: its nuclei count
A. 89.6

Q. # input compound: `COc1ccc(C(=O)Nn2c(C3CCC3)nc3ccccc3c2=O)c(OC)c1` ; wanted: its nuclei count
A. 111

Q. # input compound: `Cc1onc(-c2ccccc2Cl)c1C(=O)NCCn1c(C)cc2ccccc21` ; wanted: its nuclei count
A. 79.4

Q. # input compound: `O=c1sc(Nc2ccccc2)nc2ccsc12` ; wanted: its nuclei count
A. 91.4

Q. # input compound: `CCc1cccc(NC(=O)CCc2nc(-c3cccs3)no2)c1` ; wanted: its nuclei count
A. 106

Q. # input compound: `Cc1nn(-c2ccc(F)cc2)c2c1cc(C#N)c1nc3ccccc3n12` ; wanted: its nuclei count
A. 69.3

Q. # input compound: `CCOC(=O)Cn1c(CCC(=O)O)ccc1-c1ccc(F)cc1` ; wanted: its nuclei count
A. 98.2

Q. # input compound: `COc1cc(S(=O)(=O)N2CCC(N3CCCCC3)CC2)ccc1-n1cnnn1` ; wanted: its nuclei count
A. 89.1

Q. # input compound: `C=CCOc1nc(N(C)C)nc(N(C)C)n1` ; wanted: its nuclei count
A. 103

Q. # input compound: `CCc1ccccc1NC(=O)CCc1nc(-c2ccc(C)cc2)no1` ; wanted: its nuclei count
A. 103

Q. # input compound: `CCOC(=O)CSc1nnc(NCC(=O)OC(C)C)c(=O)[nH]1` ; wanted: its nuclei count
A. 100

Q. # input compound: `O=C(c1cc2ccccc2oc1=O)N1CCN(c2ccc(N3CCOCC3)nn2)CC1` ; wanted: its nuclei count
A. 104

Q. # input compound: `O=C(CSc1nnc(CNC(=O)c2cccs2)o1)NCCc1ccccc1` ; wanted: its nuclei count
A. 82.7

Q. # input compound: CCOC(=O)C1=C(C)Nc2nc(SCC(=O)OC)nn2C1c1cc(F)cc(F)c1 (stereo not given) ; wanted: its nuclei count
A. 96.1

Q. # input compound: CCC(C)NC(=O)c1cn(CC)c2ccc(S(=O)(=O)N(C)C)cc2c1=O (stereo not given) ; wanted: its nuclei count
A. 111

Q. # input compound: `O=c1ccc2cc3c([nH]c4ccc(Br)cc43)oc-2c1O` ; wanted: its nuclei count
A. 111

Q. # input compound: `COc1ccc(N2C(=O)C(Cl)=C(N3CCCC3)C2=O)cc1` ; wanted: its nuclei count
A. 101

Q. # input compound: `CCC(=O)Nc1ccc2nc(SCC(=O)N3CCCC3)sc2c1` ; wanted: its nuclei count
A. 102

Q. # input compound: CC(=O)OC1CSc2nc3ccccc3n2C1 (stereo not given) ; wanted: its nuclei count
A. 99.9

Q. # input compound: `O=C(/C=C1\NC2(CCCC2)Cc2ccccc21)N1CCOCC1` ; wanted: its nuclei count
A. 88.6

Q. # input compound: `CCc1[nH]nc2c1C1(CCN(C(=O)OCc3ccccc3)CC1)C(C#N)=C(N)O2` ; wanted: its nuclei count
A. 114

Q. # input compound: `CCn1c(C(=O)N2CCC(C(=O)N3CCN(c4ccccn4)CC3)CC2)cc2sccc21` ; wanted: its nuclei count
A. 105

Q. # input compound: CCC(C)(C(=O)NC1CCCC1)N(C(=O)c1cnccn1)c1c(C)n(C)n(-c2ccccc2)c1=O (stereo not given) ; wanted: its nuclei count
A. 91.3

* * *

# protocol.summary: inhibitors of mutant huntingtin aggregation, primary screen, imaging, exon1htt(103Q)mCFP cells, high-content imaging (AID 483);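 also: compound exposure lasted 3 days before fixation; percent of the per-plate median nuclei count of sample wells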
# stated.conditions: exon1htt(103Q)mCFP cell line, aggregate imaging, at 2 µM; measured here: cell count, toxicity
Entries and their measured nuclei count follow.
Remember to put the unit after the number in your answer.

In the examples that follow, each entry is paired with its recorded nuclei count.
COc1cc(OC)c2c(c1)OC(c1ccc(OC)c(OC)c1)C(O)C2=O (stereo not drawn)	104%
Cc1cc(C)cc(-n2nnc(C(=O)NCc3ccc4c(c3)OCO4)c2N)c1	108%
c1ccc(-c2ccc(-c3ccccn3)nn2)nc1	67.7%
COc1cc(OC)c(C2C(C#N)=C(N)OC3=C2C(=O)CC(C)(C)C3)cc1OC (stereo not drawn)	88.4%
CCOC(=O)c1cc(CC)sc1NC(=O)CCC(=O)O	99.8%

Q. # input molecule: Cn1c(=O)c2c(ncn2CC(=O)OCC(=O)NC2CCCc3ccccc32)n(C)c1=O (stereo not drawn) ; wanted: its nuclei count
A. 64.6%

Q. # input molecule: COC(=O)C1=C(C)OC(N)=C(C#N)C1c1c(C)nn(-c2ccccc2)c1Cl (stereo not drawn) ; wanted: its nuclei count
A. 107%

Q. # input molecule: `CC1(C)NC(=O)N(CN2C(=O)NC(C)(C)C2=O)C1=O` ; wanted: its nuclei count
A. 114%

Q. # input molecule: `Cc1ccnc(SCCn2c(N3CCN(Cc4ccccc4)CC3)nc3c2c(=O)[nH]c(=O)n3C)n1` ; wanted: its nuclei count
A. 120%

Q. # input molecule: Cc1cc(=O)n2nc(N3CCCC(C(=O)N4CCc5ccccc54)C3)sc2n1 (stereo not drawn) ; wanted: its nuclei count
A. 97%

Q. # input molecule: `Cc1ccc(C(=O)NCc2ccc3c(c2)OCO3)cc1S(=O)(=O)N1CCCCC1` ; wanted: its nuclei count
A. 99.9%

* * *

# protocol.summary: inhibitors of TNFa-induced NFkB p65 translocation, primary screen, imaging, HUVEC, MLSMR starter and 10KST1 sets (AID 438);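 also: compound added about 3h40 before a 20 min TNFalpha stimulation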;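 as to inhibition: signal is the nuclear over cytoplasmic p65 intensity ratio per well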
# stated.conditions: HUVEC TNFa-induced p65 nuclear translocation; at 2 µM, stronger effect = higher value, 0% TNFa-plus-vehicle, 100% no-TNFa wells
property.measured: inhibition (%)
A number alone suffices; assume %.

In the examples that follow, each entry is paired with its recorded inhibition.
Cc1ccc(-c2ccc(SCC(=O)Nc3nonc3C)nn2)cc1	2.2
CCOC(=O)c1ccccc1NC(=O)c1cc2sccc2n1C	-42.9
Cc1ccc(CSC2=NCCN2C(=O)C2CC2)cc1	-0.8

Q. # input compound: `O=C(CN1C(=O)COc2ccccc21)N(Cc1cccnc1)Cc1ccccc1F` ; wanted: its inhibition
A. -2.9

Q. # input compound: COc1ccc(C2CC(C(F)(F)F)n3ncc(C(=O)NCc4cccnc4)c3N2)cc1OC (stereo unspecified) ; wanted: its inhibition
A. 0.3

Q. # input compound: `Cc1noc(C)c1C(=O)Nc1ccc(Cl)cc1C(F)(F)F` ; wanted: its inhibition
A. -13.5

* * *

Entries and their measured cell count follow.
# protocol.summary: inhibitors of TNFa-induced NFkB p65 translocation, primary screen, imaging, HUVEC, MLSMR starter and 10KST1 sets (AID 438);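 also: compound added about 3h40 before a 20 min TNFalpha stimulation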
# stated.conditions: HUVEC TNFa-induced p65 nuclear translocation; measured here: nuclei count (cytotoxicity indicator), at 2.08 µM
When you answer, write just the number.

O=C(NCCCNCc1ccccc1)/C(=N\O)c1ccccc1	518

Q. # input compound: Cc1[nH]nc2c1C(c1ccc(F)cc1)C1=C(CC(C)(C)CC1=O)N2 (configuration not stated) ; wanted: its cell count
A. 561

Q. # input compound: `O=C(CN(Cc1ccco1)C(=O)CNS(=O)(=O)c1ccc(F)cc1)NCCc1ccccc1` ; wanted: its cell count
A. 520

Q. # input compound: `COc1ccc2cc(C#N)c(SCC(=O)N3CCCC3)nc2c1` ; wanted: its cell count
A. 514

Q. # input compound: `Cc1cc(C)c(OCC(=O)Nc2ccc3c(c2)OCO3)cc1C` ; wanted: its cell count
A. 327

Q. # input compound: COc1ccc(C2=CC(c3ccc(C)cc3)n3nnnc3N2)cc1 (configuration not stated) ; wanted: its cell count
A. 524

Q. # input compound: `Cc1cccc(Cn2c(SCCN3CCCCC3)nc3c2c(=O)[nH]c(=O)n3C)c1` ; wanted: its cell count
A. 497

Q. # input compound: `COC(=O)c1ccc(NC(=O)CN2CCCC2)cc1` ; wanted: its cell count
A. 612

Q. # input compound: `CCn1c(SCC(=O)NC)nnc1C(C)C` ; wanted: its cell count
A. 718

Q. # input compound: `C=CCNc1nc(C)nc(OC)n1` ; wanted: its cell count
A. 634

Q. # input compound: `c1ccc2c(c1)CNC1(CCCCC1)C2` ; wanted: its cell count
A. 362

Q. # input compound: CCN(CC)CC(C)CNC(=O)CC(C(=O)N1CCc2ccccc21)n1ccnc1 (configuration not stated) ; wanted: its cell count
A. 604
